- System: progesterone-induced endometrial glandular proliferation in rabbit uterus
- assay_method_text: anti-McGinty and anti-Clauberg assays in the rabbit uterus
- Type: in vivo
- assay_context: average of anti-McGinty and anti-Clauberg results relative to CDB-2914 (=1.00)
For each entry below, report its rabbit Biol. Act. value.
Give the figure only, with no unit attached.

Exercise: What value of rabbit Biol. Act. has been recorded for this entry: CC(=O)O[C@]1(C(=O)CF)CCC2C3CCC4=CC(=O)CCC4=C3C(c3ccc(N(C)C)cc3)C[C@@]21C (stereo partly shown)
Solution: 0.90

Exercise: Find the recorded rabbit Biol. Act. belonging to CC(=O)OCC(=O)[C@@]1(OC(C)=O)CCC2C3CCC4=CC(=O)CCC4=C3C(c3ccc(N(C)C)cc3)C[C@@]21C (stereo partly shown) and report it.
Solution: 2.90

Exercise: Find the recorded rabbit Biol. Act. belonging to CC(=O)O[C@]1(C(=O)C[S+](C)[O-])CCC2C3CCC4=CC(=O)CCC4=C3C(c3ccc(N(C)C)cc3)C[C@@]21C (stereo partly shown) and report it.
Solution: 0.65

Exercise: Which rabbit Biol. Act. is reported for this compound? COCC(=O)C1(OC(C)=O)CCC2C3CCC4=CC(=NO)CCC4=C3C(c3ccc(N(C)C)cc3)C[C@@]21C (stereo partly shown)
Solution: 1.00

Exercise: Requested field: rabbit Biol. Act.. Item: CCOCC(=O)C1(OC(C)=O)CCC2C3CCC4=CC(=NO)CCC4=C3C(c3ccc(N(C)C)cc3)C[C@@]21C (stereo partly shown)
Solution: 0.54

Exercise: Endpoint output: rabbit Biol. Act. of CC(=O)O[C@]1(C(=O)CSC#N)CCC2C3CCC4=CC(=O)CCC4=C3C(c3ccc(N(C)C)cc3)C[C@@]21C (stereo partly shown) . Value?
Solution: 0.57

Exercise: Dear colleague, I am looking for the recorded rabbit Biol. Act. of the following compound: CC(=O)O[C@]1(C(=O)CBr)CCC2C3CCC4=CC(=O)CCC4=C3C(c3ccc(N(C)C)cc3)C[C@@]21C (stereo partly shown)
Solution: 0.70

Exercise: Please give the measured rabbit Biol. Act. for this compound: C=COCC(=O)[C@@]1(OC(C)=O)CCC2C3CCC4=CC(=O)CCC4=C3C(c3ccc(N(C)C)cc3)C[C@@]21C (stereo partly shown)
Solution: 3.03

Exercise: I have this compound here, CC(=O)O[C@]1(C(C)=O)CC[C@H]2[C@@H]3CCC4=CC(=O)CCC4=C3[C@@H](c3ccc(N(C)C)cc3)C[C@@]21C [CDB-2914, reference compound] , and I need its recorded rabbit Biol. Act..
Solution: 1.00

Exercise: Query: rabbit Biol. Act.; subject: CC(=O)O[C@]1(C2COC(C)(C)O2)CCC2C3CCC4=CC(=O)CCC4=C3C(c3ccc(N(C)C)cc3)C[C@@]21C (stereo partly shown)
Solution: 0.10

Exercise: rabbit Biol. Act. lookup needed for CC(=O)OCC(=O)C1(OC(C)=O)CCC2C3CCC4=CC(=NO)CCC4=C3C(c3ccc(N(C)C)cc3)C[C@@]21C (stereo partly shown) , thanks.
Solution: 0.68

Exercise: Fill in the blank: the reported rabbit Biol. Act. of CC(=O)O[C@]1(C(=O)COC(=O)CN)CCC2C3CCC4=CC(=O)CCC4=C3C(c3ccc(N(C)C)cc3)C[C@@]21C (stereo partly shown) is ____.
Solution: 0.95

Exercise: Bench note: what rabbit Biol. Act. did COCC(=O)[C@@]1(OC(C)=O)CCC2C3CCC4=C(C(=O)c5ccccc5)C(=O)CCC4=C3C(c3ccc(N(C)C)cc3)C[C@@]21C (stereo partly shown) show?
Solution: 0.60

Exercise: Would you kindly share the measured rabbit Biol. Act. for COCC(=O)[C@@]1(OC(C)=O)CC[C@H]2[C@@H]3CCC4=CC(=O)CCC4=C3[C@@H](c3ccc(N(C)C)cc3)C[C@@]21C ?
Solution: 3.60

Exercise: What does the data say about its rabbit Biol. Act.? Entry: CCOCC(=O)[C@@]1(OC(C)=O)CCC2C3CCC4=CC(=O)CCC4=C3C(c3ccc(N(C)C)cc3)C[C@@]21C (stereo partly shown)
Solution: 1.50

Exercise: Consider the compound shown here: CCC(=O)OCC(=O)[C@@]1(OC(C)=O)CCC2C3CCC4=CC(=O)CCC4=C3C(c3ccc(N(C)C)cc3)C[C@@]21C (stereo partly shown) What is its recorded rabbit Biol. Act.?
Solution: 1.70

Exercise: Consider the compound shown here: CCC(=O)[C@@]1(OC(C)=O)CCC2C3CCC4=CC(=O)CCC4=C3C(c3ccc(N(C)C)cc3)C[C@@]21C (stereo partly shown) What is its recorded rabbit Biol. Act.?
Solution: 0.30

Exercise: Reported rabbit Biol. Act., compound CC(=O)O[C@]1(C(=O)CSC(C)=O)CCC2C3CCC4=C(C(=O)c5ccccc5)C(=O)CCC4=C3C(c3ccc(N(C)C)cc3)C[C@@]21C (stereo partly shown) : ____
Solution: 0.10

Exercise: # lookup: rabbit Biol. Act. of CC(=O)O[C@]1(C(=O)CO)CCC2C3CCC4=CC(=O)CCC4=C3C(c3ccc(N(C)C)cc3)C[C@@]21C (stereo partly shown)
Solution: 1.40
